# System: Candida albicans
# Test Summary: Antifungal activity against Candida albicans at 100 ug/ml after 72 hrs by agar well diffusion method
# Assay type: functional
# Experimental Setup: read-out: IZ

>  <Item Smiles>
N#CSc1c(-c2cc3ccccc3oc2=O)nc2sc(Cc3noc4ccccc34)nn12

>  <Target Of Assay>
Candida albicans

>  <zone of inhibition at 100 µg/mL (mm)>
12

$$$$
>  <Item Smiles>
N#CSc1c(-c2ccc(Br)cc2)nc2sc(Cc3noc4ccccc34)nn12

>  <Target Of Assay>
Candida albicans

>  <zone of inhibition at 100 µg/mL (mm)>
14

$$$$
>  <Item Smiles>
O=Nc1c(-c2ccccc2)nc2sc(Cc3noc4ccccc34)nn12

>  <Target Of Assay>
Candida albicans

>  <zone of inhibition at 100 µg/mL (mm)>
13

$$$$
>  <Item Smiles>
COc1ccc(-c2nc3sc(Cc4noc5ccccc45)nn3c2Br)cc1

>  <Target Of Assay>
Candida albicans

>  <zone of inhibition at 100 µg/mL (mm)>
10

$$$$
>  <Item Smiles>
c1ccc(-c2cn3nc(Cc4noc5ccccc45)sc3n2)cc1

>  <Target Of Assay>
Candida albicans

>  <zone of inhibition at 100 µg/mL (mm)>
12

$$$$
>  <Item Smiles>
N#CSc1c(-c2ccccc2)nc2sc(Cc3noc4ccccc34)nn12

>  <Target Of Assay>
Candida albicans

>  <zone of inhibition at 100 µg/mL (mm)>
12

$$$$
>  <Item Smiles>
O=Nc1c(-c2cc3ccccc3oc2=O)nc2sc(Cc3noc4ccccc34)nn12

>  <Target Of Assay>
Candida albicans

>  <zone of inhibition at 100 µg/mL (mm)>
15

$$$$
>  <Item Smiles>
N#CSc1c(-c2ccc([N+](=O)[O-])cc2)nc2sc(Cc3noc4ccccc34)nn12

>  <Target Of Assay>
Candida albicans

>  <zone of inhibition at 100 µg/mL (mm)>
11

$$$$
>  <Item Smiles>
O=c1oc2ccccc2cc1-c1nc2sc(Cc3noc4ccccc34)nn2c1Br

>  <Target Of Assay>
Candida albicans

>  <zone of inhibition at 100 µg/mL (mm)>
14

$$$$
>  <Item Smiles>
Brc1c(-c2ccccc2)nc2sc(Cc3noc4ccccc34)nn12

>  <Target Of Assay>
Candida albicans

>  <zone of inhibition at 100 µg/mL (mm)>
14

$$$$
>  <Item Smiles>
O=[N+]([O-])c1ccc(-c2cn3nc(Cc4noc5ccccc45)sc3n2)cc1

>  <Target Of Assay>
Candida albicans

>  <zone of inhibition at 100 µg/mL (mm)>
10

$$$$
>  <Item Smiles>
O=c1oc2ccccc2cc1-c1cn2nc(Cc3noc4ccccc34)sc2n1

>  <Target Of Assay>
Candida albicans

>  <zone of inhibition at 100 µg/mL (mm)>
20

$$$$
>  <Item Smiles>
COc1ccc(-c2nc3sc(Cc4noc5ccccc45)nn3c2SC#N)cc1

>  <Target Of Assay>
Candida albicans

>  <zone of inhibition at 100 µg/mL (mm)>
20

$$$$
>  <Item Smiles>
O=[N+]([O-])c1ccc(-c2nc3sc(Cc4noc5ccccc45)nn3c2Br)cc1

>  <Target Of Assay>
Candida albicans

>  <zone of inhibition at 100 µg/mL (mm)>
9

$$$$
>  <Item Smiles>
COc1ccc(-c2cn3nc(Cc4noc5ccccc45)sc3n2)cc1

>  <Target Of Assay>
Candida albicans

>  <zone of inhibition at 100 µg/mL (mm)>
15

$$$$
>  <Item Smiles>
Brc1ccc(-c2nc3sc(Cc4noc5ccccc45)nn3c2Br)cc1

>  <Target Of Assay>
Candida albicans

>  <zone of inhibition at 100 µg/mL (mm)>
16

$$$$
>  <Item Smiles>
N#CSc1c(-c2ccc(Cl)cc2)nc2sc(Cc3noc4ccccc34)nn12

>  <Target Of Assay>
Candida albicans

>  <zone of inhibition at 100 µg/mL (mm)>
15

$$$$
>  <Item Smiles>
COc1ccc(-c2nc3sc(Cc4noc5ccccc45)nn3c2N=O)cc1

>  <Target Of Assay>
Candida albicans

>  <zone of inhibition at 100 µg/mL (mm)>
14

$$$$
>  <Item Smiles>
O=Nc1c(-c2ccc(Br)cc2)nc2sc(Cc3noc4ccccc34)nn12

>  <Target Of Assay>
Candida albicans

>  <zone of inhibition at 100 µg/mL (mm)>
17

$$$$
>  <Item Smiles>
O=Nc1c(-c2ccc([N+](=O)[O-])cc2)nc2sc(Cc3noc4ccccc34)nn12

>  <Target Of Assay>
Candida albicans

>  <zone of inhibition at 100 µg/mL (mm)>
17

$$$$
>  <Item Smiles>
Clc1ccc(-c2cn3nc(Cc4noc5ccccc45)sc3n2)cc1

>  <Target Of Assay>
Candida albicans

>  <zone of inhibition at 100 µg/mL (mm)>
11

$$$$
>  <Item Smiles>
Clc1ccc(-c2nc3sc(Cc4noc5ccccc45)nn3c2Br)cc1

>  <Target Of Assay>
Candida albicans

>  <zone of inhibition at 100 µg/mL (mm)>
15

$$$$
